Parameter: Kd. Scope: all listed entries.
- assay system: T1, human HIDE1-flag (human, UniProt A8MVS5 20-230)
- T1 construct: Over-expressed on HEK293, SK-MEL-5, CHO-S and CHO-S OKT3 cells (pMSCV or pcDNA3.1); whole cell extracts in WB; Entry includes the signal peptide; also called hHIDE1 Flag
- T1 sequence: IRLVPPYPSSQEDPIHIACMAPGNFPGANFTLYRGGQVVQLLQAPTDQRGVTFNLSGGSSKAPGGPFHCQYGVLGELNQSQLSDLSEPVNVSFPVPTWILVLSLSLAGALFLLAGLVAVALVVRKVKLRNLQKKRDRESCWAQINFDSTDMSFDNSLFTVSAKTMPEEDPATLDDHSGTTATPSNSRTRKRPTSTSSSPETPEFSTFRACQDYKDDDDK
- assay summary: FACS titration on CHO-S cells over-expressing human HIDE1 Flag (curves in FIG. 96A)
Please respond with the number in nM and leave the unit unwritten.

Query string: Give the reported Kd for this binder. αhHIDE1_AbD25760_hIgG1_Ser_mAb (antibody, V domains shown, also called AB-510; Ab-510) VH: QVQLVQSGAEVKKPGSSVKVSCKASGGTFSDYAINWVRQAPGQGLEWMGGIIPNFGTANYAQKFQGRVTITADESTSTAYMELSSLRSEDTAVYYCARGMRSLGGLSYYFDLWGQGTLVTVSS VL: DIQMTQSPSSLSASVGDRVTITCRASQSINSYLNWYQQKPGKAPKLLIYAASSLQSGVPSRFSGSGSGTDFTLTISSLQPEDFATYYCQQYIHYPITFGQGTKVEIK
Result string: 96.7

Others:
Query string: Give the reported Kd for this binder. αhHIDE1_AbD25753_hIgG1_Ser_mAb (antibody, V domains shown) VH: EVQLVQSGAEVKKPGESLKISCKGSGYSFTNYWIHWVRQMPGKGLEWMGIIDPGNSFTRYSPSFQGQVTISADKSISTAYLQWSSLKASDTAMYYCARGDGLYGGSDGYSMGGFDNWGQGTLVTVSS VL: DIQMTQSPSSLSASVGDRVTITCRASQTIWNYLAWYQQKPGKAPKLLIYDASNLQSGVPSRFSGSGSGTDFTLTISSLQPEDFATYYCQQYSHFPHTFGQGTKVEIK
Result string: 10.8

Query string: Give the reported Kd for this binder. αhHIDE1_AbD25755_hIgG1_Ser_mAb (antibody, V domains shown) VH: QVQLVQSGAEVKKPGSSVKVSCKASGGTFSSYAISWVRQAPGQGLEWMGGIVPKFGTAYYAQKFQGRVTITADESTSTAYMELSSLRSEDTAVYYCARENLVYSAIAIWGQGTLVTVSS VL: DIQMTQSPSSLSASVGDRVTITCRASQDISNWLNWYQQKPGKAPKLLIYGASSLQSGVPSRFSGSGSGTDFTLTISSLQPEDFATYYCQQVTSTPFTFGQGTKVEIK
Result string: 45.4

Query string: Give the reported Kd for this binder. αhHIDE1_AbD25754_hIgG1_Ser_mAb (antibody, V domains shown) VH: QVQLVQSGAEVKKPGASVKVSCKASGYTFSGYGMHWVRQAPGQGLEWMGIISPSNGNTNYAQKFQGRVTMTRDTSISTAYMELSRLRSEDTAVYYCAREVYYGLDVWGQGTLVTVSS VL: DIQMTQSPSSLSASVGDRVTITCRASQSISSWLNWYQQKPGKAPQLLIYGASSLQSGVPSRFSGSGSGTDFTLTISSLQPEDFATYYCQQYISIPITFGQGTKVEIK
Result string: 9.85
